target.of.assay: EphB2 (receptor of Table 1)
procedure.text: EphB receptor specificity panel (% binding)
What % Binding was measured for each of the following?
Answers are plain numbers, in %.

Could you report % Binding for every entry in the following list?
1. NHWPTQPYAIPI (Panned on EphB2) [NHWPTQPYAIPI peptide (SEQ ID NO:15)]
2. WHRYPDPRMLPT (Panned on EphB2) [WHRYPDPRMLPT peptide (SEQ ID NO:7)]
3. AHTFPYPHPKPH (Panned on EphB1) [AHTFPYPHPKPH peptide (SEQ ID NO:3)]
4. DALNDWLLFRPW (Panned on EphB4) [DALNDWLLFRPW peptide (SEQ ID NO:20)]

1. 100
2. 100
3. 4
4. 0

// each listed binder needs a value for % Binding
1. TYFDFQAWSIRA (Panned on EphB4) [TYFDFQAWSIRA peptide (SEQ ID NO:22)]
2. EWLSPNLAPSVR (Panned on EphB1; Footnote e: biotinylated and non-biotinylated peptides gave the same IC50) [EWLSPNLAPSVR peptide (SEQ ID NO:1)]
3. TNYLFSPNGPIA (Panned on EphB4; non-biotinylated form) [TNYLFSPNGPIA peptide (SEQ ID NO:24)]
4. LPHGPVAAAWDA (Panned on EphB4) [LPHGPVAAAWDA peptide (SEQ ID NO:26)]
5. SHWPISPYSLLS (Panned on EphB2) [SHWPISPYSLLS peptide (SEQ ID NO:14)]
6. DHWYYTPWQPIE (Panned on EphB2) [DHWYYTPWQPIE peptide (SEQ ID NO:9)]
7. WHWTIEPFAITS (Panned on EphB2) [WHWTIEPFAITS peptide (SEQ ID NO:8)]
8. DHWPLLPYALAH (Panned on EphB2) [… peptide (SEQ ID NO:16)]

[21, 2, 3, 15, 100, 81, 100, 100]
